Entry source: PubChem BioAssay

experiment: forskolin-driven CRE-LacZ activity in PC12 – cell-based, CRE-LacZ reporter, forskolin-stimulated, primary screen (AID 1146); settings: luminescence, 4.5 h, called active from +8 up or from −8 down;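 also: PC12 cells with 6xCRE LacZ reporter stimulated by forskolin 10 µM; beta-galactosidase reporter signal reflecting CREB driven transcription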
Active and inactive are the calls of the source.
Classes to choose from: active, inactive

CC(C)N1C(=O)C[C@@](C(=O)NCCN2CCOCC2)(c2ccc([N+](=O)[O-])cc2)[C@H]1c1ccc(CO)cc1 = inactive
C=C(CCCC)C(=O)CC[C@H](OC(=O)c1ccccc1-c1ccccc1C(=O)O)c1ccc(OCCO)cc1 = inactive
O=C1N(Cc2ccccc2)c2ccccc2C[C@@]12COC(c1ccc(OCCCO)cc1)=N2 = inactive

Status in this test for CN1C(=O)[C@@H]2[C@@H](CC(COc3ccccc3)=C3[C@@H](CCc4ccccc4)OB(O)C[C@@H]32)C1=O ?
inactive

So what was the verdict on COCCOC(=O)N1C(=O)[C@@]2(c3cc(C#CCCO)ccc31)[C@H](c1ccccc1OCCO)N1[C@H](c3ccccc3)[C@H](c3ccccc3)OC(=O)[C@H]1[C@@H]2C(N)=O in this test?
active

# fetch the recorded call for O=C1[C@@H]2[C@@H](CC(COc3ccccc3)=C([C@H](O)CCc3ccccc3)[C@@H]2CO)C(=O)N1Cc1ccccc1 here
inactive

What classification did CCCC[C@H]1C[C@@H]1[C@@H]1N(C(C)=O)[C@H](c2cccc(OC)c2)CC12CC2 end up with in this test?
inactive

====

target: Homeobox protein Hox-A13 (Mus musculus) (UniProt Q62424); test: disruptors of Hoxa13 oligonucleotide interaction – biochemical, fluorescence polarization, labeled oligonucleotide, primary screen (AID 1185); conditions: Hoxa13:DNA binding, 15 min, higher = more signal, called active from +8 up or from −8 down
Sequence (Q62424 whole entry, looked up): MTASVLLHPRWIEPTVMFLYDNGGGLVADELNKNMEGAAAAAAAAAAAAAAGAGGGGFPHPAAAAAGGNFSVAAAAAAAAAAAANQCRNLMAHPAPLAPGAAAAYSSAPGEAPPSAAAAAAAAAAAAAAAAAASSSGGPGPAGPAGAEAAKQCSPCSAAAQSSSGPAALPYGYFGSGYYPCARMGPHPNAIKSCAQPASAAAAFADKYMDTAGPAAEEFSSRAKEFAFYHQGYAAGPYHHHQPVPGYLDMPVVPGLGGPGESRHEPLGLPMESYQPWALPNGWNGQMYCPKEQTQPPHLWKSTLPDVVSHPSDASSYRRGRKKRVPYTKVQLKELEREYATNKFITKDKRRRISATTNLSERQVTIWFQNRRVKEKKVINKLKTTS
Catalogue of z-score values
// return just the number, without any unit appended

COc1ccc(C(O)C2C=CC3C(=O)N(C)C(=O)C3N2N(c2ccccc2)c2ccccc2)cc1 (stereo unspecified) = -6.57

State the recorded z-score for this entry: C=CCOC(=O)[C@@H]1[C@H]2C(=O)O[C@H](c3ccccc3)[C@H](c3ccccc3)N2[C@H](c2ccc(OCCOC(=O)[C@H]3C[C@H]4C(=O)N5CCC[C@H]5C(=O)N4[C@H]3c3cccc(OCCO)c3)cc2)[C@@]12C(=O)Nc1ccc(I)cc12
0.634

I have this compound here, C=C(CCCC)C(=O)CC[C@@H](OC(=O)c1ccccc1-c1ccccc1C(=O)O)c1ccccc1OCCO , and I need its recorded z-score.
-6.26

// lookup z-score for O=C(NCC(O)CO)C1N=C(c2ccc(OCCCO)cc2)N(c2ccccc2)O1 (stereo unspecified)
-2.55

Fill in: z-score of N#Cc1ccc(C(O)C2C=CC3C(=O)NC(=O)C3N2Nc2ccc(Cl)cc2Cl)cc1 (stereo unspecified) is ___
-5.63

Dear colleague, I am looking for the recorded z-score of the following compound: COCC(=C=CC[C@H](O)c1ccccc1OCCO)C[C@H](O)COCc1ccccc1
-4.37

Give the measured z-score of COCCCN1C(=O)[C@@]2(c3ccc([N+](=O)[O-])cc3)CC(=O)N(CC34CC5CC(CC(C5)C3)C4)[C@@H]2c2ccc(CO)cc21 .
-0.113

====

composite z-score reference
tested on: Chordin-like protein 2 (CHRDL2); assay: compounds binding chordin-like 2 – biochemical, small-molecule microarray, 635 nm fluorescence, primary screen (AID 1126); settings: fluorescence 635 nm, higher = more signal;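 also: printed compound slides probed with Chrdl2 protein at 4 µg/mL for 1 h at 4 C; score merges 667 nm emission intensity with signal to noise over three replicate slides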
Just the number, please, no unit after it.

Some solved cases for reference:
CC(C)N1C(=O)c2ccccc2[C@](C)(C(=O)NCC(F)(F)F)[C@@H]1c1ccc(CO)cc1 = -0.912
[N-]=[N+]=Nc1ccccc1[C@@H]1OC(c2ccc(OCCCO)cc2)=N[C@]1(CCS(=O)(=O)c1ccccc1)C(=O)NCC(O)CO (stereo partly specified) = -0.165
C[N+](C)(C)CCCC[C@@H]1NC(=O)[C@H]2C[C@@H](C(=O)NCCCCCNC(=O)CS)[C@@H](c3cccc(OCCO)c3)N2C1=O = 0.245
C[N+](C)(C)CCCCNC(=O)[C@H]1C[C@H]2C(=O)N[C@@H](Cc3ccccc3)C(=O)N2[C@H]1c1cccc(OCCO)c1 = 1.5
COCCCN1C(=O)[C@@]2(c3ccc([N+](=O)[O-])cc3)CC(=O)N(CC34CC5CC(CC(C5)C3)C4)[C@@H]2c2ccc(CO)cc21 = -0.0444

GET /values?readout=composite z-score&system=Chordin-like protein 2 (CHRDL2)&item= CN1C(=O)C2C=CC(C(O)c3ccc(-c4ccccc4)s3)N(NC(=O)OC(C)(C)C)C2C1=O (stereo unspecified)
0.0094

Form: Entry = C=CC[C@@]12N=C(c3ccc(OCCCO)cc3)O[C@@H]1c1ccccc1N(CCC)C2=O | System = Chordin-like protein 2 (CHRDL2) | composite z-score = ____
1.24

Identify the measured composite z-score of CN(C)CCCCNC(=O)[C@H]1C[C@H]2C(=O)NCC(=O)N2[C@H]1c1ccc(O)cc1 for Chordin-like protein 2 (CHRDL2).
0.367

What composite z-score appears in the records for this compound with Chordin-like protein 2 (CHRDL2)? CCOC(=O)C[C@H]1[C@H](OC(=O)Cc2ccc3c(c2)OCO3)[C@@H](NC(=O)c2ccc3ccccc3n2)c2cc(OCCCO)ccc2N1C(=O)Cc1ccc(OC)cc1
-0.17

Checklist item: composite z-score tested on Chordin-like protein 2 (CHRDL2), entry O=C1c2ccccc2[C@@]2(Cc3ccccc3N(Cc3ccccc3)C2=O)[C@H](c2ccc(CO)cc2)N1Cc1ccccc1Cl , value?
-0.688

Short answer please: composite z-score, Chordin-like protein 2 (CHRDL2), entry CO[C@H]1O[C@H](CO)[C@@H](OC(=O)Nc2ccccc2-c2ccccc2)[C@H](OC(=O)Nc2ccccc2)[C@H]1OC(=O)Nc1ccccc1
0.697
